tgt: T1, human ROR1 on cells (HEK293T-hROR1, PANC-1, A549) (human, UniProt Q01973 30-937)
T1 construct: whole, on cells; one molecule for the three cell lines; also called huROR1; cell surface ROR1
assay_overview: flow cytometry, HEK293T-hROR1 cells
measured_attribute: EC50 (µg/mL)
Kindly provide the numeric value in µg/mL only, without the unit symbol.

Worked set:
| binder | obs_value |
| --- | --- |
| PR303145 (antibody, human IgG1, V domains shown, HCAb (heavy chain-only, human IgG1 Fc), no light chain) VH: QVQLVESGGGLVKPGGSLRISCAASGFTFSNYNMSWIRQAPGKGVEWVSHISGSGRTIYYAESVKGRFTISRDNAKNSLYLQMNSLRAEDTAMYYCARDLSSGWYEDFDYWGQGTLVTVSS | 0.158 |
| PR303125 (antibody, human IgG1, V domains shown, HCAb (heavy chain-only, human IgG1 Fc), no light chain) VH: EVQLLESGGGLVQPGGSLRLSCAASGFTFSSHAMSWVRQAPGKGLEWVSAISGSGDSTHYAASVKGRFTISRDNSKNTLYLQMNSLRAEDTAVYYCETLLRFLESLGNDGFKIWGQGTMVTVSS | 0.273 |
| PR303201 (antibody, human IgG1, V domains shown, HCAb (heavy chain-only, human IgG1 Fc), no light chain) VH: EVQLLESGGGLVQPGGSLRLSCAASGFTFSGNAMSWVRQAPGKGLEWVSAISGSGDKTYYAASVKGRFTISRDNSNNTVYLQMNSLRAEDTAVYYCEKGAFRTTMDYWGQGTLVTVSS | 0.066 |

IN: What measured EC50 goes with PR303191 (antibody, human IgG1, V domains shown, HCAb (heavy chain-only, human IgG1 Fc), no light chain) VH: EVQLLESGGGLVQPGGSLRLSCAASGFIFGSYAMSWVRQAPGKGLEWVSGISGTGGNTYYADSVKGRFTISRDNSKNTLYLQMNSLRAEDTAVYFCERGITIHGVVIIPPDYRGQGTLVTVSS ?
OUT: 0.044

Reference source for all entries: patent US20250257130A1
